These entries and their values trace back to ChEMBL document CHEMBL1743341.

Target: Cytochrome P450 2B1 (Rattus norvegicus, UniProt P00176)
Sequence (P00176 whole entry): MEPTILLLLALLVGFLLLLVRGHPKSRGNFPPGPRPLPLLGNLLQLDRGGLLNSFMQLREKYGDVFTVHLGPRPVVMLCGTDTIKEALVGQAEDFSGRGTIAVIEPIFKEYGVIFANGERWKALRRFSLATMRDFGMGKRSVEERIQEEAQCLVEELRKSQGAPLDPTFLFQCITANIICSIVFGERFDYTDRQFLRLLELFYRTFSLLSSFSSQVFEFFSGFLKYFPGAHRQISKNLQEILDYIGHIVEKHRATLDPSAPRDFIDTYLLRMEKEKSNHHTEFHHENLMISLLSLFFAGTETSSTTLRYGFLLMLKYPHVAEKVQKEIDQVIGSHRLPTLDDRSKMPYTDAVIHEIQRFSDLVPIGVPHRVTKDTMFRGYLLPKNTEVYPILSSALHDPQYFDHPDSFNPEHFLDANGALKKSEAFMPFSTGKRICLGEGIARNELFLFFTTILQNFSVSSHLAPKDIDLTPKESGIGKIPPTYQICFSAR
Experiment: Mechanism based inhibition of rat cytochrome P450 CYP2B1 measured by 7-pentoxyresorufin […] activity (PROD)
Assay type: ADME
// values below are reported Ki

>  <COMPOUND>
C#CCN(C)C(C)CCCCC.C#CCN[C@@H](C)CCCCC.C#CCN[C@H](C)CCCCC (configuration not stated)

>  <RESULT_UNITS>
nM

>  <Ki>
800

$$$$
>  <COMPOUND>
C#Cc1cc2ccccc2c2ccccc12

>  <RESULT_UNITS>
nM

>  <Ki>
140

$$$$

* * *

Biological target: Cytochrome P450 2D6 (Homo sapiens, UniProt P10635)
Sequence (P10635 whole entry): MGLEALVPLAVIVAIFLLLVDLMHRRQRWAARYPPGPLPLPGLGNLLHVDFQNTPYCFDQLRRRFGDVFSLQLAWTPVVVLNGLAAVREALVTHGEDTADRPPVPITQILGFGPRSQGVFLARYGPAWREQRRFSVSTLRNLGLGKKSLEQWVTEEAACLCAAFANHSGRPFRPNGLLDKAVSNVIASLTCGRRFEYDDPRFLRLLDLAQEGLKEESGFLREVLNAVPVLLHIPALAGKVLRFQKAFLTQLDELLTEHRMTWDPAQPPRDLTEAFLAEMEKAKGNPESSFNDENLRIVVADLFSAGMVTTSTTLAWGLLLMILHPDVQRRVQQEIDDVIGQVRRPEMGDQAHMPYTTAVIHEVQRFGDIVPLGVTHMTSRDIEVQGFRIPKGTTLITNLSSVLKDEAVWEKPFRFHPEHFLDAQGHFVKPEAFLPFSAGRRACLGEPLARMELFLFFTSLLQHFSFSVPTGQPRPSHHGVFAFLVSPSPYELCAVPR
Assay: Mechanism based inhibition of human cytochrome P450 2D6 measured by dextromethorphan O-demethylation using human liver microsomes
Type: ADME, Microsome
// values below are reported Ki

>  <COMPOUND>
CNC(C)Cc1ccc2c(c1)OCO2 (configuration not stated)

>  <Ki>
22.8 µM

$$$$
>  <COMPOUND>
Fc1cnc(N2CCN(CC3=NC(c4ccccc4)=NC3)CC2)nc1

>  <Ki>
4.8 µM

$$$$

* * *

Target: Cytochrome P450 2B6 (Homo sapiens)
Sequence (P20813 whole entry): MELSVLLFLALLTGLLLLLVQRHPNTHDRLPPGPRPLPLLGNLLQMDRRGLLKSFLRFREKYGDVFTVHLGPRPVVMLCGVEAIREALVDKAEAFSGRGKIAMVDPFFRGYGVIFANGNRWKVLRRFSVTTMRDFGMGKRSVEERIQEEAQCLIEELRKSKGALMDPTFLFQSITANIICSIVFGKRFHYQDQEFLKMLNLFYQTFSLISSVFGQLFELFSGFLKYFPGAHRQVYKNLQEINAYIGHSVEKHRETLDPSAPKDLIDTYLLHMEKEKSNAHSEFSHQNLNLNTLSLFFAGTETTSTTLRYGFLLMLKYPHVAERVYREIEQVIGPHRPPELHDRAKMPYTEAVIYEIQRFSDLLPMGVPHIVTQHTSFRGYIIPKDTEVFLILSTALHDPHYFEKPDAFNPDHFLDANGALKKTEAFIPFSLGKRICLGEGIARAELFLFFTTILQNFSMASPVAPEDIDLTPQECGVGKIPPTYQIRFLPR
Test: Mechanism based inhibition of human cytochrome P450 2B6 measured by 7-EFC O-deethylation
pKi: −log10 of the molar value.
ASSAY_READOUT: pKi

>  <COMPOUND>
C#C[C@]1(O)CC[C@H]2[C@@H]3CCc4cc(O)ccc4[C@H]3CC[C@@]21C [ETHINYL ESTRADIOL]

>  <RECORDED_RESULT>
6.05

$$$$

* * *

Molecular target: UniProt P11509
Sequence (P11509 whole entry): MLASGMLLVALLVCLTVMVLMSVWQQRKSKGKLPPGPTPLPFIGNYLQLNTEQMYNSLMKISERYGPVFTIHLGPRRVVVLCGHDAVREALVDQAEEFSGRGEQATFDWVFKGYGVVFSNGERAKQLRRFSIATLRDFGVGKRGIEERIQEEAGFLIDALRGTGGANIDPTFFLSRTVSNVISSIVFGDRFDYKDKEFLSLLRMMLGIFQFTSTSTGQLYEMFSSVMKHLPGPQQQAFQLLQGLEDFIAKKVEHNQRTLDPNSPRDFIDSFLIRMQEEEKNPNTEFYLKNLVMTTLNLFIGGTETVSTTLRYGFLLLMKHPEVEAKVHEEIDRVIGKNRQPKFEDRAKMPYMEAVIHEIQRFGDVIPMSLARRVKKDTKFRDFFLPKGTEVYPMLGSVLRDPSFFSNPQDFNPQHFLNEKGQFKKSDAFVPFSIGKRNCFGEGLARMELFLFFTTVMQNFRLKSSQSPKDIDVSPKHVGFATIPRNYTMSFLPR
Assay: Mechanism based inhibition of human cytochrome P450 2A6 measured by coumarin 7-hydroxylation
Assay type: ADME
Conditions: probe coumarin
// values below are reported kinact

>  <COMPOUND>
CN1CCC[C@H]1c1cccnc1 [NICOTINE]

>  <kinact>
1.18 s⁻¹

$$$$
>  <COMPOUND>
Cn1cccc1-c1cccnc1 [NICOTYRINE]

>  <kinact>
0.104 s⁻¹

$$$$

* * *

// values below are reported kinact
Molecular target: CYP2C8 (Homo sapiens)
Sequence (P10632 whole entry): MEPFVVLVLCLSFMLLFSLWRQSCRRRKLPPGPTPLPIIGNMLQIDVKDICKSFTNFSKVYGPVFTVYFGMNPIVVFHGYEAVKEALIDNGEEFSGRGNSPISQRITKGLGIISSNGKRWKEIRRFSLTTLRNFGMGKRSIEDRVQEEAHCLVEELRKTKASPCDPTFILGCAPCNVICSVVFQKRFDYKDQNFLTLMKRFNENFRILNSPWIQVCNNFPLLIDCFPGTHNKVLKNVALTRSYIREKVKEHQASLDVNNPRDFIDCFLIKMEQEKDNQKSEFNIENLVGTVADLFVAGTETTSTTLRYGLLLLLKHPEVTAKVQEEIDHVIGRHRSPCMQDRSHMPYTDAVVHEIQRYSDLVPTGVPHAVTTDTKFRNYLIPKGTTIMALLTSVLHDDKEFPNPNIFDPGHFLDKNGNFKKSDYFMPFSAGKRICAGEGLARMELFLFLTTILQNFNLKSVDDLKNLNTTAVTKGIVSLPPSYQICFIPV
Assay: in vitro
Settings: recombinant CYP2C8, probe paclitaxel
Description: Mechanism based inhibition of human cytochrome P450 2C8 measured by paclitaxel hydroxylation using a recombinant system

>  <STRUCTURE>
NNCCc1ccccc1

>  <kinact [s⁻¹]>
0.00405

$$$$
>  <STRUCTURE>
CNCCC=C1c2ccccc2CCc2ccccc21

>  <kinact [s⁻¹]>
0.0006

$$$$
>  <STRUCTURE>
CCCCc1oc2ccccc2c1C(=O)c1cc(I)c(OCCN(CC)CC)c(I)c1

>  <kinact [s⁻¹]>
0.00132

$$$$

* * *

Biological target: CYP3A4 (Homo sapiens)
Test: Mechanism based inhibition of human cytochrome P450 3A4 measured by testosterone 6-beta hydroxylation using a recombinant system
Assay type: ADME
Conditions: human, recombinant CYP3A4 system, probe testosterone (6-beta hydroxylation)

>  <COMPOUND>
COc1ccc(CCNCCCC(C#N)(c2ccc(OC)c(OC)c2)C(C)C)cc1OC (stereo unspecified)

>  <TARGET_SYSTEM>
CYP3A4 (Homo sapiens)

>  <kinact [s⁻¹]>
0.0187

$$$$

* * *

Biological target: Cytochrome P450 3A4 (Homo sapiens, UniProt P08684)
Sequence (P08684 whole entry): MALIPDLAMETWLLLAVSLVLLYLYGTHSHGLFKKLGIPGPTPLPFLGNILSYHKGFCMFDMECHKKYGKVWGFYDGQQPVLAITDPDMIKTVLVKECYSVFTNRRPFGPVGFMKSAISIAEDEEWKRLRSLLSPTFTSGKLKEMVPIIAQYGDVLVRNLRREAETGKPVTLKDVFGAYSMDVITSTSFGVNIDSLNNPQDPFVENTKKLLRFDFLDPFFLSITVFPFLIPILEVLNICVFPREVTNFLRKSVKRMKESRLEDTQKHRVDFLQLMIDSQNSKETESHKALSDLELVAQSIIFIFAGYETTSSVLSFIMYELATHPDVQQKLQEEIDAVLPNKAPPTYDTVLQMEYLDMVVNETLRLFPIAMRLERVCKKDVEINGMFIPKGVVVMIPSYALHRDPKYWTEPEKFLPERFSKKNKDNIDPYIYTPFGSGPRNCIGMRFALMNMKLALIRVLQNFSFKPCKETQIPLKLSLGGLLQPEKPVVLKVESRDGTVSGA
Test: Mechanism based inhibition of human cytochrome P450 3A4 measured by testosterone 6-beta hydroxylation using a recombinant system
Type: ADME
pKi: −log10 of the molar value.

>  <COMPOUND>
COc1ccc(CCNCCCC(C#N)(c2ccc(OC)c(OC)c2)C(C)C)cc1OC (stereo unspecified) [NORVERAPAMIL]

>  <pKi>
5.23

$$$$

* * *

// values below are reported kinact
Biological target: CYP3A4 (Homo sapiens, UniProt P08684)
Sequence (P08684 whole entry): as the sequence (P08684 whole entry) above
Test: Mechanism based inhibition of human cytochrome P450 3A4 measured by nifedipine oxidation, omeprazole 3-hydroxylation and omeprazole sulfoxydation
Type: ADME
Conditions: human

>  <COMPOUND>
C=C(C)C(CC/C(C)=C/COc1c2ccoc2cc2oc(=O)ccc12)OC(C)(C)C(O)CC/C(C)=C/COc1c2ccoc2cc2oc(=O)ccc12 (configuration not stated)

>  <TARGET_SYSTEM>
CYP3A4 (Homo sapiens, UniProt P08684)

>  <kinact (s⁻¹)>
0.000833

$$$$
>  <COMPOUND>
C/C(=C\COc1c2ccoc2cc2oc(=O)ccc12)CCC(O)C(C)(C)O (configuration not stated) [DIHYDROXYBERGAMOTTIN]

>  <TARGET_SYSTEM>
CYP3A4 (Homo sapiens, UniProt P08684)

>  <kinact (s⁻¹)>
0.001

$$$$

* * *

Biological target: UniProtKB P20813
Sequence (P20813 whole entry): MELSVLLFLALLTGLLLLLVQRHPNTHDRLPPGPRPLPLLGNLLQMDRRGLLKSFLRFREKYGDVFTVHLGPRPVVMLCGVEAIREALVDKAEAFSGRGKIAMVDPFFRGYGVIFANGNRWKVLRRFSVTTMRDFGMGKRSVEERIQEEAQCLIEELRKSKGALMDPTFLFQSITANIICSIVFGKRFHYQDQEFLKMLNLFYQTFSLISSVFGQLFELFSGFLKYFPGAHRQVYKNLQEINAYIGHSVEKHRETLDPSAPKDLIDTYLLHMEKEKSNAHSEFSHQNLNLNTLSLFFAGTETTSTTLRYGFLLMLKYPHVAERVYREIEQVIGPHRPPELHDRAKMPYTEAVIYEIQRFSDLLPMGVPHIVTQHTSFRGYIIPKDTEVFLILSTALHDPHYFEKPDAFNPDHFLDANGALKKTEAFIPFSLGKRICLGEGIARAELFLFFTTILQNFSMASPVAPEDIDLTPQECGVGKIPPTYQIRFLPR
Test: Mechanism based inhibition of human cytochrome P450 2B6 using human liver microsomes

>  <STRUCTURE>
COC(=O)[C@H](c1ccccc1Cl)N1CCc2sccc2C1

>  <TARGET_SYSTEM>
UniProtKB P20813

>  <Ki, nM>
500

$$$$
